Each entry below carries its recorded Population Healthy Nuclei (%).
Test system: Fibroblast
Test: Multiplex assay against human fibroblast
Type: toxicity, cell-based
Settings: 24 h, 1 µM, compound concentration 1 uM, replicate 2

Before answering, review these 4 worked examples.
compound=Cl.Cl.NC1(c2ccc(-c3nc4ccn5c(=O)[nH]nc5c4cc3-c3ccccc3)cc2)CCC1 system_name=Fibroblast recorded_measurement=32%
compound=CCOc1cc(N2CCC(O)CC2)ccc1Nc1ncc2c(n1)N(C1CCCC1)CCC(=O)N2C system_name=Fibroblast recorded_measurement=35%
compound=Nc1ccc(C(=O)Nc2cccc(-c3nc(N4CCOCC4)c4oc5ncccc5c4n3)c2)cn1 system_name=Fibroblast recorded_measurement=52%
compound="CC(C)Oc1ccc(C(=O)N[C@H](CNC(=O)CN(C)C)Cc2ccc(-c3cn4cccc([C@H](C)O)c4n3)cc2)cc1Cl [GSK-923295A]" system_name=Fibroblast recorded_measurement=34%

Could you now look at the following compound, please?
input: Give measured Population Healthy Nuclei (%) for CN(C)C/C=C/C(=O)Nc1cc2c(Nc3ccc(F)c(Cl)c3)ncnc2cc1O[C@H]1CCOC1.O=C(O)/C=C\C(=O)O.O=C(O)/C=C\C(=O)O [AFATINIB DIMALEATE] (Fibroblast).
output: 28%

----------
Population Hoechst High Intensity Objects (%) values for the molecules below.
Test system: U2OS
Assay: Multiplex assay against U2OS
Assay type: toxicity, cell-based
Details: human, 12 h, 10 µM, compound concentration 10 uM, replicate 1
Could you give me the number in %? Just the number is fine.

molecule="CNC(=O)c1cc(Oc2ccc(NC(=O)Nc3cc(C(C)(C)C)nn3-c3ccc4ncccc4c3)c(F)c2)ccn1 [REBASTINIB]" system_name=U2OS recorded_measurement=6
molecule="O=C(O)c1ccc2c(c1)nc(Nc1cccc(Cl)c1)c1ccncc12 [SILMITASERTIB]" system_name=U2OS recorded_measurement=4
molecule="CCOc1cc2ncc(C#N)c(Nc3ccc(OCc4cccc(F)c4)c(Cl)c3)c2cc1NC(=O)/C=C/CN(C)C [HKI-357]" system_name=U2OS recorded_measurement=5

Next molecule, please.
input: Fill in reported Population Hoechst High Intensity Objects (%) for this entry: c1ccc2oc(-c3csc(C4CCN(Cc5nc6ncccc6[nH]5)CC4)n3)cc2c1
output: 3

----------
Test system: U2OS
Test: Multiplex assay against U2OS
Assay type: toxicity, cell-based
Settings: human, 48 h, 10 µM, compound concentration 10 uM, replicate 1
reported-endpoint: Population Healthy Nuclei (%)
Give me the value, and tack the unit on after it.

molecule="CCc1cc2c(cc1CC)CC(NC[C@H](O)c1ccc(O)c3[nH]c(=O)ccc13)C2 [INDACATEROL]" reported_endpoint="Population Healthy Nuclei (%)" recorded_measurement=30%

input: Please tell me the measured Population Healthy Nuclei (%) for Cc1cc2c(cc1N1C(=O)c3cccc4c(CCCO)ccc(c34)C1=O)n(C)c(=O)n2C ; system: U2OS.
output: 53%

input: Under U2OS, report Population Healthy Nuclei (%) for Nc1nc2c(c(N3CCNCC3)n1)CCC1=C2[C@@H]2CCCC[C@@H]2O1
output: 32%

input: Give the observed Population Healthy Nuclei (%) of CC(C)Oc1ccc(C(=O)N[C@H](CNC(=O)CN(C)C)Cc2ccc(-c3cn4cccc([C@H](C)O)c4n3)cc2)cc1Cl [GSK-923295A] for U2OS.
output: 41%
